settings: in isopropanol, 323.15 K
measure: solubility (mole fraction)
# print the numeric value only

Would you mind telling me what solubility (mole fraction) value was observed for O=C(O)COc1ccc(Cl)cc1Cl ?
0.201

----------
details: in isobutyl acetate, 288.15 K
measure: solubility (mole fraction)

Would you mind telling me what solubility (mole fraction) value was observed for O=C(O)COc1ccc(Cl)cc1Cl ?
0.0494

----------
conditions: in n-propanol, 303.15 K
measure: solubility (mole fraction)
# print the numeric value only

Would you mind telling me what solubility (mole fraction) value was observed for O=C(O)COc1ccc(Cl)cc1Cl ?
0.131

----------
settings: in isopropanol, 278.15 K
measure: solubility (mole fraction)
# print the numeric value only

Would you mind telling me what solubility (mole fraction) value was observed for O=C(O)COc1ccc(Cl)cc1Cl ?
0.0424
